# System: OVCAR-5 ovarian
# assay comment: NCI-60 one-dose screen, 48 h (100 = growth as untreated, 0 = no growth, -100 = all killed)
# test context: 10 µM
This is part of a sample that, as a whole, favours compounds with a hit. Of some 83,000 tested, about 20% had one in any assay.
parameter: growth (%)
Your answer is read as %, so omit the unit and give the number.

Answered examples (8):
{"molecule": "Cc1ccc(C(=O)N2C/C(=C/c3ccccc3)C(=O)/C(=C/c3ccccc3)C2)cc1", "growth [%]": 105}
{"molecule": "CC1CN(Cc2ccccc2)C(=O)NC1=O (stereo unspecified)", "growth [%]": 115}
{"molecule": "Cc1c(Cl)cccc1NC(=O)c1sc2nc3c(cc2c1N)C(=O)CCC3", "growth [%]": 31.8}
{"molecule": "CCN(CC)CCCC(C)Nc1ccc2ccc(Cl)cc2n1 (stereo unspecified)", "growth [%]": 102}
{"molecule": "CCN(CCCCCCCCCCN1CC(=O)N(CCCCCCCCCCN(CC)Cc2ccccc2OC)CC1=O)Cc1ccccc1OC", "growth [%]": 8.29}
{"molecule": "N#Cc1c(C#N)c(SSc2c(C#N)c(C#N)c(N)n2-c2ccccc2)n(-c2ccccc2)c1N", "growth [%]": 91.8}
{"molecule": "CCCCCCN1C(=O)C2=C(c3ccc(Cl)cc3)Nc3c(c(C)nn3-c3ccccc3)C2c2ccccc21 (stereo unspecified)", "growth [%]": 100}
{"molecule": "CCN(CC)CCNc1ccc(CO)c2oc3cc(Cl)ccc3c(=O)c12", "growth [%]": 104}

What value of growth has been recorded for this entry: COc1cc(NC(=O)CCSc2nc3ccc(C)cc3c(=O)n2Cc2ccccc2)cc(OC)c1OC 94.2

What value of growth has been recorded for this entry: Cc1cc2ccccc2nc1-c1ccccc1F 106

What value of growth has been recorded for this entry: COc1ccc(C2CC(c3ccc(N(C)C)cc3)=NN2c2ccc(S(N)(=O)=O)cc2)cc1 (stereo unspecified) 84.3

What value of growth has been recorded for this entry: O=C(N/N=C\c1cc(Cl)ccc1[N+](=O)[O-])c1ccco1 118

What value of growth has been recorded for this entry: O=C(Nc1cccc(-n2cc(-c3ccncc3)c(-c3ccc(O)c(Cl)c3)n2)c1)Nc1ccc(Cl)c(Cl)c1 31.4

What value of growth has been recorded for this entry: O=C(Nc1ccc(Cl)cc1)N1NC(c2ccc(Cl)cc2)C=C1c1ccccc1 (stereo unspecified) 124

What value of growth has been recorded for this entry: O=C1/C(=C\c2ccc(F)cc2)CN(C(=O)c2ccc([N+](=O)[O-])cc2)C/C1=C\c1ccc(F)cc1 77.1

----------
# System: ACHN renal
# assay comment: NCI-60 one-dose screen, 48 h (100 = growth as untreated, 0 = no growth, -100 = all killed)
# test context: 10 µM
This is part of a sample that, as a whole, favours compounds with a hit. Of some 83,000 tested, about 20% had one in any assay.
Each item that follows carries a reported growth.
Your answer is read as %, so omit the unit and give the number.

Answered examples (6):
{"entry smiles": "Nc1ncnc2[nH]c(=O)[nH]c12", "experimental target": "ACHN renal", "scale unit": "%", "growth": 98.9}
{"entry smiles": "Cc1cccc(NC2=C(C#N)C(=O)NC3(CCCC3)S2)c1", "experimental target": "ACHN renal", "scale unit": "%", "growth": 98.2}
{"entry smiles": "Nc1ccccc1NC(=O)CCCCC(=O)Nc1ccc2c(c1)/C(=C/c1ccc[nH]1)C(=O)N2", "experimental target": "ACHN renal", "scale unit": "%", "growth": 92.7}
{"entry smiles": "O=C(Nc1cccc(Cl)c1)Nc1nccs1", "experimental target": "ACHN renal", "scale unit": "%", "growth": 98.5}
{"entry smiles": "C(CCCC1=NCCO1)CCCC1=NCCO1", "experimental target": "ACHN renal", "scale unit": "%", "growth": 105}
{"entry smiles": "Clc1ccc2c(NCCCNc3nccc(Nc4ccc(Br)cc4)n3)ccnc2c1", "experimental target": "ACHN renal", "scale unit": "%", "growth": -90.6}

What value of growth has been recorded for this entry: Cn1c(C(N)=O)cc2c1-c1nc(Nc3ccccc3)ncc1CCC2 25.6

What value of growth has been recorded for this entry: COc1cc(C(=O)/C=C/c2cc(-c3cc(OC)c(OC)c(OC)c3)n[nH]2)cc(OC)c1OC -25.8

What value of growth has been recorded for this entry: Clc1nc(Cl)c2c(ncn2C/C=C\Cn2cnc3c(Cl)nc(Cl)nc32)n1 -100

What value of growth has been recorded for this entry: COc1ccc2c(c1)O/C(=C\c1ncc([N+](=O)[O-])n1C)C2=O 0.77

What value of growth has been recorded for this entry: O=C1/C(=C\c2ccc(F)cc2)CN(C(=O)c2ccccc2)C/C1=C\c1ccc(F)cc1 24.3

----------
# Tested on: 786-0 renal
# assay comment: NCI-60 one-dose screen, 48 h (100 = growth as untreated, 0 = no growth, -100 = all killed)
# test context: 10 µM
This is part of a sample that, as a whole, favours compounds with a hit. Of some 83,000 tested, about 20% had one in any assay. Activity calls are given as the source filed them. How the source made its calls: active means growth percent below 10; inactive means the rest.
parameter: growth

Answered examples (6):
{"compound": "COc1cc(NC(=O)c2sc3nc4c(cc3c2N)C(O)CCC4)cc(OC)c1 (configuration not stated)", "parameter": "growth", "result": "97.3% (inactive)"}
{"compound": "COc1cc2cc3c(nc2cc1OC)CCN3Cc1ccc(NC(=O)Nc2cc(C(F)(F)F)cc(C(F)(F)F)c2)cc1", "parameter": "growth", "result": "81.4% (inactive)"}
{"compound": "CSc1cc(SC)ncn1", "parameter": "growth", "result": "103% (inactive)"}
{"compound": "O=[N+]([O-])c1cccc(-c2ncc(-c3ccc(Cl)cc3Cl)[nH]2)c1", "parameter": "growth", "result": "66.8% (inactive)"}
{"compound": "FC(F)(F)c1ccc(-c2cnc(Cl)nc2N2CCC3(CC2)OCCO3)cc1", "parameter": "growth", "result": "95.5% (inactive)"}
{"compound": "C#Cc1ccc(-n2c(/C=C/c3cc(OC)cc(OC)c3)nc3ncccc3c2=O)cc1", "parameter": "growth", "result": "81% (inactive)"}

What value of growth has been recorded for this entry: O=C(Nc1cccc(-n2cc(-c3ccncc3)c(-c3ccc(O)c(Cl)c3)n2)c1)c1ccc(N2CCOCC2)c(C(F)(F)F)c1 8.9% (active)

What value of growth has been recorded for this entry: C#Cc1ccc(-n2c(/C=C/c3ccc(Cl)c(F)c3)nc3ncccc3c2=O)cc1 7.88% (active)

What value of growth has been recorded for this entry: CC1(C)Cc2c(sc3ncn4nc(-c5ccc(O)cc5)nc4c23)CO1 74.9% (inactive)

What value of growth has been recorded for this entry: N#Cc1ncc(-c2ccc(C(F)(F)F)cc2)c(NCc2cc(C(F)(F)F)cc(C(F)(F)F)c2)n1 40.3% (inactive)

What value of growth has been recorded for this entry: Cc1ccc(C(=O)Nc2cccc(F)c2)cc1NC(=O)C1(c2ncnc3[nH]ccc23)CC1 110% (inactive)

What value of growth has been recorded for this entry: COc1ccc2c(c1)sc1nc(-c3ccccc3)c(-c3ccc(O)c(OC)c3)n12 84.9% (inactive)

----------
# Test system: M14 melanoma
# assay comment: NCI-60 one-dose screen, 48 h
# test context: 10 µM
Compounds without any hit were thinned out: in the full panel of roughly 83,000, 20% have a hit. Activity calls are given as the source filed them. How the source made its calls: active means growth percent below 10; inactive means the rest.
Valid outcomes are listed here; reply with one: active, inactive

Worked cases, answers included:
{"compound": "O=S(=O)(NCCCNc1nccc(-c2c(-c3ccc(F)cc3)nc3sccn23)n1)c1ccc2ccccc2c1", "experimental target": "M14 melanoma", "category": "inactive"}
{"compound": "COc1cc(NC(=O)CSc2nc3ccccc3c(=O)n2CCc2ccccc2)cc(OC)c1OC", "experimental target": "M14 melanoma", "category": "inactive"}
{"compound": "CC1CN(Cc2ccccc2)C(=O)NC1=O (stereo unspecified)", "experimental target": "M14 melanoma", "category": "inactive"}
{"compound": "CC1(C)N=C(N)N=C(N)N1c1ccc(CCc2ccccc2)c(Cl)c1", "experimental target": "M14 melanoma", "category": "inactive"}
{"compound": "O=[N+]([O-])c1ccc(N/N=C/c2cccc3ccccc23)nc1", "experimental target": "M14 melanoma", "category": "inactive"}

Outcome? Clc1nc(Cl)c2c(ncn2C/C=C\Cn2cnc3c(Cl)nc(Cl)nc32)n1 active

Outcome? COc1ccc2c(c1)N(CCO)C1=C(C(=O)OC1)C2c1cc(OC)c(OC)c(OC)c1 (stereo unspecified) inactive

Outcome? O=[N+]([O-])c1ccc(Oc2cc(Cl)c(Cl)cc2Cl)c(C(F)(F)F)c1 inactive

Outcome? COc1ccc(OC)c2c1C(=O)CC2C (stereo unspecified) inactive

Outcome? COc1ccc2c(c1)sc1nc(-c3ccccc3)c(-c3ccc(O)c(OC)c3)n12 inactive

Outcome? CCC(=O)N1C/C(=C/c2ccc(Cl)cc2)C(=O)/C(=C/c2ccc(Cl)cc2)C1 active
